The reported numbers originate from ChEMBL document CHEMBL5131445.

assay: Plasma protein binding in human assessed as unbound fraction by rapid equilibrium dialysis method; format: ADME, cell-free
MEASURED ENDPOINT: fraction unbound

# STRUCTURE STRING, MEASURED ENDPOINT, VAL
measured = [
    ("C=CC(=O)N(C)CCOc1cncnc1-c1ccc(CN2CCN(CC(C)(C)C)CC2=O)c(C)c1", "fraction unbound", 0.14),
    ("C=CC(=O)N(C)CCOc1cncnc1-c1ccc(CN2CCN(CC(C)C)CC2=O)c(C)c1", "fraction unbound", 0.24),
    ("CC(=O)N(C)CCOc1cncnc1-c1ccc(CN2CCN(CC(C)(C)C)CC2=O)c(C)c1", "fraction unbound", 0.31),
]

1. C=CC(=O)N(C)CCOc1c(-c2ccc(CN3CCN(CC(C)C)CC3=O)c(C)c2)ccnc1N
2. C=CC(=O)N(C)CCOc1cnccc1-c1ccc(CN2CCN(CC(C)(C)C)CC2=O)c(C)c1
3. Cc1cc(-c2ccnc(Nc3cnn(C)c3)n2)ccc1CN1CCN(CC(C)(C)C)CC1=O
Input line: Rank ascending by fraction unbound. Form entry: ranked labels (order as requested).
Output line: 3, 2, 1
(3: 0.014, 2: 0.11, 1: 0.29)

###

assay: Metabolic stability in rat liver microsomes assessed as intrinsic clearance; format: ADME, Microsome; conditions: read-out: CLH
MEASURED ENDPOINT: CLint scaled (mL/min/kg)

Solved cases below.
# STRUCTURE STRING, MEASUREMENT UNITS, CLint scaled
measured = [
    ("C=CC(=O)N(C)CCOc1cncnc1-c1ccc(CN2CCN(CC(C)(C)C)CC2=O)c(C)c1", "mL/min/kg", 2500),
    ("C=CC(=O)N(C)CCOc1cncnc1-c1ccc(CN2CCN(CC(C)(C)C)CC2=O)cc1", "mL/min/kg", 930),
]

A. C=CC(=O)N(C)CCOc1cnccc1-c1ccc(CN2CCN(C(C)C)CC2=O)c(C)c1
B. C=CC(=O)N(C)CCOc1cncnc1-c1ccc(CN2CCN(CC3CCC3)CC2=O)c(C)c1
C. C=CC(=O)N(C)CCOc1cnccc1-c1ccc(CN2CCN(CC)CC2=O)c(C)c1
Input line: Ordering criterion: CLint scaled; begin with the maximum. Form entry: ranked labels (order as requested).
Output line: B, A, C
(B: 1880 mL/min/kg, A: 1240 mL/min/kg, C: 591 mL/min/kg)

###

experiment: Volume of distribution at steady state in iv dosed Sprague-Dawley rat; type: ADME, organism-based; settings: in vivo, read-out: Vdss
MEASURED ENDPOINT: Vd (L/kg)
Provide only the numeric value, understood in L/kg.

Input line: What does the record list as Vd for C=CC(=O)N(C)CCOc1c(N)ncnc1-c1ccc(CN2CCN(CC(C)C)CC2=O)c(C)c1 ?
Output line: 126

###

assay: Plasma protein binding in rat assessed as unbound fraction by rapid equilibrium dialysis method; assay type: ADME, cell-free
MEASURED ENDPOINT: fraction unbound

I. C=CC(=O)N(C)CCOc1c(N)ncnc1-c1ccc(CN2CCN(CC(C)C)CC2=O)c(C)c1
II. C=CC(=O)N(C)CCOc1cncnc1-c1ccc(CN2CCN(CC(C)C)CC2=O)c(C)c1
Input line: Of the pair I and II , name the member with the lesser recorded fraction unbound. Field: selected label. Fill in the label of the entry you choose.
Output line: II
